pIC50: −log10 of the molar value.
Endpoint: pIC50. System: Tyrosine-protein kinase JAK1 (Homo sapiens, UniProt P23458). Items follow.
Sequence (P23458 whole entry): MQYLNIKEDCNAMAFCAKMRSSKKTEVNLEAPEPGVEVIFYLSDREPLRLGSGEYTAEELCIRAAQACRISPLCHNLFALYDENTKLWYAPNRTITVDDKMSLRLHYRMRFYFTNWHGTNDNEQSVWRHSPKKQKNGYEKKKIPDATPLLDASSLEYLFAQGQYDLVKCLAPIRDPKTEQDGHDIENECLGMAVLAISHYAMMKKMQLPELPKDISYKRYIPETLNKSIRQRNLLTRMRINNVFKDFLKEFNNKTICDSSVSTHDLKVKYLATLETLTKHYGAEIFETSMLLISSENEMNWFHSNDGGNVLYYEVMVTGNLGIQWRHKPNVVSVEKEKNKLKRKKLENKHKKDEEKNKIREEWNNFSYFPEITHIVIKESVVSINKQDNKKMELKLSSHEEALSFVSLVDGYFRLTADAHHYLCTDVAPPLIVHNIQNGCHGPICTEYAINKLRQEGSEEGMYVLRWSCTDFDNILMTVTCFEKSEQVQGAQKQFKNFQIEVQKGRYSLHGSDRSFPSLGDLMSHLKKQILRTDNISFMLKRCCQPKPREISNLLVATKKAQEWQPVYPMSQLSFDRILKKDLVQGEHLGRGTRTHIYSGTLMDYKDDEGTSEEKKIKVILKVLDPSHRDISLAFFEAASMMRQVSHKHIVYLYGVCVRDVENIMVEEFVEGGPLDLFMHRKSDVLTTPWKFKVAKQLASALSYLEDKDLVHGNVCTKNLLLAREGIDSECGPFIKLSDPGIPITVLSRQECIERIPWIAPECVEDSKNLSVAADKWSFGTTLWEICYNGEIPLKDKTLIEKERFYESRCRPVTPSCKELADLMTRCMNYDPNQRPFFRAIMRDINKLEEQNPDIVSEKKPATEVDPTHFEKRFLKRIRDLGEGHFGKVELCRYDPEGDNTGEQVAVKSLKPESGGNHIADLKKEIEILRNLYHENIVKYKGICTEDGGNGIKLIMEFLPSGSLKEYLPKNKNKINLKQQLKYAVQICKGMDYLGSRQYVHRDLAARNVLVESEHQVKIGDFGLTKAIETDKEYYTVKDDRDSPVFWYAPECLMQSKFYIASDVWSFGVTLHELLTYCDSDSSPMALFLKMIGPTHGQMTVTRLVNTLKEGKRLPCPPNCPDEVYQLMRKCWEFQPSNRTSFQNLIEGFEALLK
Readout: pIC50

O=C(Nc1nc2cccc(C3CCC4(CC3)CN(C(=O)C3(F)CC3)C4)n2n1)[C@@H]1CC1(F)F [US11919896, Compound 9-4] | 6.60

A = O=C(Nc1nc2cccc(C3CCC4(CC3)CN(C(=O)C3(F)CC3)C4)n2n1)[C@H]1CC1(F)F [US11919896, Compound 8-7]
B = O=C(Nc1nc2cccc(C3(F)CCC4(CC3)CN(C(=O)CC(F)(F)F)C4)n2n1)C1CC1 [US11919896, Compound 4-7]
q: Hi, I'm comparing A with B and wondering which one has the bigger number for pIC50. Any idea? Answer format: the label of the selected item.
a: A

====

Endpoint: pIC50. System: UniProt:O60674. Items follow.
Sequence (O60674 whole entry): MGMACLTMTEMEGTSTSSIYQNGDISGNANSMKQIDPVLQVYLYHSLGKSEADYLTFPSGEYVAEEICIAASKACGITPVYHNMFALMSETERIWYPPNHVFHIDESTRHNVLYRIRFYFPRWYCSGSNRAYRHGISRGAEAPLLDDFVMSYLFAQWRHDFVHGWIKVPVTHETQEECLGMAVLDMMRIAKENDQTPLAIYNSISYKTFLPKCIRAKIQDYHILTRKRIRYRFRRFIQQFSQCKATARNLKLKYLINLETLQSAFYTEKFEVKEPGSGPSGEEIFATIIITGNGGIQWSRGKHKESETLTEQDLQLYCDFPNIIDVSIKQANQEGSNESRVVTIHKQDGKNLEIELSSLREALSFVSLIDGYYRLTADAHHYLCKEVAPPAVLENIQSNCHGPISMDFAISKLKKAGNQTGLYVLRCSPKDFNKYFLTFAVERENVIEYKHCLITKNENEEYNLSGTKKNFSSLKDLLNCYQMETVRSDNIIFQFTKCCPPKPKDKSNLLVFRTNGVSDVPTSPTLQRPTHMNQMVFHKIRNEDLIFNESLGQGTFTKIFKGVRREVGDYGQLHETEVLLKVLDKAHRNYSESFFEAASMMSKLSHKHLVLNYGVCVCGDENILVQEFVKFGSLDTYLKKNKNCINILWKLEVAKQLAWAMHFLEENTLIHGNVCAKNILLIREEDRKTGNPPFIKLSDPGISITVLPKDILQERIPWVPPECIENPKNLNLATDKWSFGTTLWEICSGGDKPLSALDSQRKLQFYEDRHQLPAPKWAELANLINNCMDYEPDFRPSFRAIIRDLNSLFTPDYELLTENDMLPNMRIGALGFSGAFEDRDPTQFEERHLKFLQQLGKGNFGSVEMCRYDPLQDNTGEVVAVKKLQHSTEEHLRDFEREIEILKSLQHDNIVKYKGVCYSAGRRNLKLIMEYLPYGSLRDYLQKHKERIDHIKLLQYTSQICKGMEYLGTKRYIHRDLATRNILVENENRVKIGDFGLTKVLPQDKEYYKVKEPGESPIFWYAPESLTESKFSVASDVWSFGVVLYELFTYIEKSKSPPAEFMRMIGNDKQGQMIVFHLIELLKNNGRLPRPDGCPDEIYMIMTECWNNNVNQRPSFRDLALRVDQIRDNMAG
pIC50: −log10 of the molar value.
Readout: pIC50

Sample answers from the record:
O=C(Nc1nc2cccc(C3(F)CCC4(CC3)CN(C(=O)CC(F)(F)F)C4)n2n1)C1CC1 | 5.11
O=C(Nc1nc2cccc(C3CCC4(CC3)CN(C(=O)C3(F)CC3)C4)n2n1)[C@@H]1CC1(F)F | 6.01

P = N#CCC(=O)N1CC2(CCC(c3cccc4nc(NC(=O)[C@H]5CC5(F)F)nn34)CC2)C1
Q = N#CCC(=O)N1CC2(CCC(c3cccc4nc(NC(=O)C5CC5(F)F)nn34)CC2)C1 (centres undefined)
q: Hi, I'm comparing P with Q and wondering which one has the bigger number for pIC50. Any idea? Answer format: the label of the selected item.
a: Q
(Q: 6.20, P: 5.86)

Source: BindingDB's records for patent US11919896
